Target: Peroxisome proliferator-activated receptor gamma (Homo sapiens) (UniProt P37231)
Sequence (P37231 whole entry, looked up): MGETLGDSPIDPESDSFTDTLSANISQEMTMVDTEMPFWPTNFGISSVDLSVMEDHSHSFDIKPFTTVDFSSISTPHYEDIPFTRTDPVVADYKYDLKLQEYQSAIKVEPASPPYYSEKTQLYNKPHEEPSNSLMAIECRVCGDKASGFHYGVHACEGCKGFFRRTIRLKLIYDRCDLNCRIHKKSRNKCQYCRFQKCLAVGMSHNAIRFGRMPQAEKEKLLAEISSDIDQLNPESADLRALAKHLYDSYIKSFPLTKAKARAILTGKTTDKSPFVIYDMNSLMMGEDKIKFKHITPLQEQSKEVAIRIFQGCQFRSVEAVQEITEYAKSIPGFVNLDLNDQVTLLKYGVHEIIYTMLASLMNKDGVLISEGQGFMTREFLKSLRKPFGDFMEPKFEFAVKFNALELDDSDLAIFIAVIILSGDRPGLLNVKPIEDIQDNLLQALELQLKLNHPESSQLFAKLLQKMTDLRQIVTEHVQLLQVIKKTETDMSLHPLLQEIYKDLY
Method description: ATG_PPARg_TRANS: Attagene TRANS-FACTORIAL HepG2 Assay for human Peroxisome Proliferator-activated Receptor-gamma (PPARg) (AID 2283007)
Records with an inconclusive call do not appear. Activity calls are given as the source filed them. The calls were made as follows: active = hit-call score of the fitted dose curve at least 0.9, where 1 is the maximum; inconclusive = response in the unintended direction; inactive = score below 0.9.

Compound: OC(Cc1ccccc1Cl)(Cn1cncn1)C1(Cl)CC1 (centres undefined)
AC50: inactive
//
Compound: CN(C1CCCCC1)C1CCCCC1
AC50: inactive
//
Compound: CCCCCCCCCCCCN(C)C
AC50: inactive
//
Compound: COP(=S)(OC)Oc1cc(Cl)c(I)cc1Cl
AC50: 28.3 µM (active)
